Subject Of Test: GABARAPL2, P60520
Sequence (P60520 whole entry, the tested form may be a part): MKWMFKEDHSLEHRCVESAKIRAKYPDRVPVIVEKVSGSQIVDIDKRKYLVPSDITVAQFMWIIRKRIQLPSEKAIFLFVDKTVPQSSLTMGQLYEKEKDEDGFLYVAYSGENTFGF
Assay Name: median log2 fold change of GCK-ALFA target abundance (FLAG IP / Myc IP barcode read proportion) (log2 ratio); each designed protein is fused to an ALFA-tag nanobody in HEK293 cells to bring the named protein to FLAG-tagged glucokinase (GCK); Myc marks an untargeted standard; higher = target protein stabilised (more abundant)
Conditions Used: target protein: 3xFLAG-MCP-GCK-ALFA reporter; HEK293 landing pad (RPLP)
For each of the binders below, state its median log2 fold change.

Example binders with recorded median log2 fold change:
GBRAPL2_128_7291 (protein) MKLVEISVKVENEEEYELAKKVLSDIAEKSSPEVAKLADAARDMLEENKEEGYNVGVTVADILSEEQAEELRKLFEEVAKEYGKEKVEKIIELTVDDLPP = 0.0557
GBRAPL2_0_7216 (protein) MEELVEEARKLSIEEAAKLFVEKVKELVESGKATDEELMELVEAGAKVLGEKLKKEKKEEGLDIAMKAADEIREILEKKDPNLAAYAYSEIGAEIMEAAS = 0.169
GBRAPL2_0_7250 (protein) MEELLKELLSLSLEEAKKKIKELTEEVIKLIEKDPKKGLEKAIELAEIFAEYLIERKNEELEEVIDEAIDKLVKKVAEVDPNEAAYIDAIIGSAIMEVEG = -0.0651
GBRAPL2_0_7245 (protein) MEELLEKLLSLSLEEAKKKIKELAEKAIKLIKEDPEKGIKEAEKLAEVFAEVLEKRKDEELLKVIEEAIDKIVKEVAKVDPNAAAYIDAIFGSAIMEVEG = 0.154
GBRAPL2_0_7227 (protein) IEEKIKEMSKLSIEEAAKKAVELVKEMAESGKYSLEEIEEFVEAAAEVLGKKIKEEKKEEGLDIADEAARKIREILSKVDPRLAAYAASEIGAAIMEAIS = 0.213

List median log2 fold change for every entry below, keeping the order given.
1. GBRAPL2_151_7326 (protein) SELERLLEKLKELLEKLEKLVEEAAKKDPSHEIELETLVGGAEADLLLAEEAPNDEEKRRFLKEAAELIKDAAELIAKITGSEEAKKLAEEAREILKELE
2. GBRAPL2_106_7269 (protein) EELKELLEKLKELKEKIEELLEKAEEKDEELYDETIELADEVTRLAIELGLDEVAALIADAANDIFEALENPEERKEDLEEALEDVEEAIKLVEEEIKKE
3. GBRAPL2_53_7345 (protein) MIVVDVAHPDKEVMAEAVEAIFDILEENGVEAKVTVTLEDGTVVELEGPLDEVRKKAVELAKKSEVLVEIELPDSAEETVEKLEDVALEKGATVSVERIP
4. GBRAPL2_128_7278 (protein) MKLVEIDIDIKNEEEYELAKKVLKRIAEEGSPEVSKLADAALDLVEENKEEGFKYSRTVVDILSEEDAEELKELFEKLAEEYGKEKVEKVIKLEIDDIPP

1: 0.164; 2: -0.274; 3: 0.0792; 4: 0.112
